# Measurement description: logP by HPLC-MS (HCOOH or neutral)
Result type: chromatographic logP
Would you mind answering with just the numeric figure?

Q. Name the reported chromatographic logP value associated with the molecule c1cnc(-c2cccc(-c3cnc(-c4cn[nH]c4)s3)n2)nc1 [Example 9]
A. 1.35

----------
# Measurement description: logP by HPLC-MS (HCOOH or neutral)
# Condition notes: logP (neutral), HPLC-MS, neutral
Reported chromatographic logP values for the following molecules.
Number only, no unit.

| Molecule | Observed |
| --- | --- |
| c1cnc(-c2cccc(-c3cnn(-c4cnsc4)c3)n2)nc1 [Example 2] | 1.64 |

Could you now look at the following molecule, please?
Q. Reported chromatographic logP for Cn1cc(-c2ncc(-c3cccc(-c4ncccn4)n3)s2)cn1 [Example 8] : what is it?
A. 1.56
